Hello, the source for this data is paper PMC8508980, in case you need it.

Test system: HT29
experimental_details: NCI 60 cell line screen
Assay type: cell-based, human
condition_set: Homo sapiens, HT-29; HT29, Colon Cancer; read-out: Percent growth
test_readout: activity at 10 µM (%)

compound: O=S(=O)(NCCCNc1nccc(-n2cnc3ccccc32)n1)c1ccccc1 [12h]
test_system: HT29
result_value: 101

compound: O=S(=O)(NCCNc1nccc(-n2cnc3ccccc32)n1)c1ccc(F)cc1 [12b]
test_system: HT29
result_value: 94.4

compound: O=S(=O)(NCCCNc1nccc(-n2cnc3ccccc32)n1)c1ccc(Br)cc1 [12k]
test_system: HT29
result_value: 103

compound: Cc1ccc(S(=O)(=O)NCCNc2nccc(-n3cnc4ccccc43)n2)cc1 [12g]
test_system: HT29
result_value: 90.2

compound: COc1ccc(S(=O)(=O)NCCNc2nccc(-n3cnc4ccccc43)n2)cc1 [12f]
test_system: HT29
result_value: 100

compound: COc1ccc(S(=O)(=O)NCCCNc2nccc(-n3cnc4ccccc43)n2)cc1 [12m]
test_system: HT29
result_value: 99.7

compound: O=S(=O)(NCCNc1nccc(-n2cnc3ccccc32)n1)c1ccccc1 [12a]
test_system: HT29
result_value: 102

compound: O=S(=O)(NCCCNc1nccc(-n2cnc3ccccc32)n1)c1ccc(Cl)cc1 [12j]
test_system: HT29
result_value: 104

compound: O=S(=O)(NCCNc1nccc(-n2cnc3ccccc32)n1)c1ccc(Br)cc1 [12d]
test_system: HT29
result_value: 97.2

compound: O=S(=O)(NCCCNc1nccc(-n2cnc3ccccc32)n1)c1ccc(C(F)(F)F)cc1 [12l]
test_system: HT29
result_value: 54.6

compound: O=S(=O)(NCCCNc1nccc(-n2cnc3ccccc32)n1)c1cccc2ccccc12 [12n]
test_system: HT29
result_value: 96.3

compound: O=S(=O)(NCCCNc1nccc(-n2cnc3ccccc32)n1)c1ccc(F)cc1 [12i]
test_system: HT29
result_value: 92.8

compound: O=S(=O)(NCCNc1nccc(-n2cnc3ccccc32)n1)c1ccc(Cl)cc1 [12c]
test_system: HT29
result_value: 103

compound: O=S(=O)(NCCNc1nccc(-n2cnc3ccccc32)n1)c1ccc(C(F)(F)F)cc1 [12e]
test_system: HT29
result_value: 68

---

Test system: NCI-H460
experimental_details: NCI 60 cell line screen
Format: cell-based, human
condition_set: Homo sapiens; NCI-H460, Non-Small Cell Lung Cancer; read-out: Percent growth
Measured activity at 10 µM, listed per entry for reference.
test_readout: activity at 10 µM (%)

compound: O=S(=O)(NCCCNc1nccc(-n2cnc3ccccc32)n1)c1ccc(Cl)cc1 [12j]
result_value: 99.8
--
compound: O=S(=O)(NCCCNc1nccc(-n2cnc3ccccc32)n1)c1ccc(C(F)(F)F)cc1 [12l]
result_value: 79.3
--
compound: O=S(=O)(NCCNc1nccc(-n2cnc3ccccc32)n1)c1ccc(C(F)(F)F)cc1 [12e]
result_value: 57.8
--
compound: O=S(=O)(NCCCNc1nccc(-n2cnc3ccccc32)n1)c1ccc(Br)cc1 [12k]
result_value: 94.3
--
compound: COc1ccc(S(=O)(=O)NCCNc2nccc(-n3cnc4ccccc43)n2)cc1 [12f]
result_value: 106
--
compound: O=S(=O)(NCCCNc1nccc(-n2cnc3ccccc32)n1)c1cccc2ccccc12 [12n]
result_value: 89.8
--
compound: O=S(=O)(NCCNc1nccc(-n2cnc3ccccc32)n1)c1ccccc1 [12a]
result_value: 103
--
compound: O=S(=O)(NCCCNc1nccc(-n2cnc3ccccc32)n1)c1ccccc1 [12h]
result_value: 96.9
--
compound: O=S(=O)(NCCCNc1nccc(-n2cnc3ccccc32)n1)c1ccc(F)cc1 [12i]
result_value: 79.7
--
compound: O=S(=O)(NCCNc1nccc(-n2cnc3ccccc32)n1)c1ccc(Br)cc1 [12d]
result_value: 101
--
compound: Cc1ccc(S(=O)(=O)NCCNc2nccc(-n3cnc4ccccc43)n2)cc1 [12g]
result_value: 79
--
compound: O=S(=O)(NCCNc1nccc(-n2cnc3ccccc32)n1)c1ccc(F)cc1 [12b]
result_value: 96.3
--
compound: O=S(=O)(NCCNc1nccc(-n2cnc3ccccc32)n1)c1ccc(Cl)cc1 [12c]
result_value: 103
--
compound: COc1ccc(S(=O)(=O)NCCCNc2nccc(-n3cnc4ccccc43)n2)cc1 [12m]
result_value: 97.3
